assay: First in human study of safety, tolerability and pharmacokinetics in healthy subjects; format: in vivo; conditions: human, plasma, oral, healthy subjects, single dose up to 1000 mg; read-out: individual subject Cmax
measurement-label: Cmax

Input: Indicate the recorded Cmax value for this compound: Cc1cc(Nc2cc3ncccc3c(N[C@@H]3C[C@H]4CC[C@@H](C3)N4CCC#N)n2)n[nH]1 [Example 1]
Output: ≤ 0.1 µg/mL

----------
test system: IL-4 induced STAT6 phosphorylation in THP-1 human monocytic cells; test: Cellular JAK potency assay, THP-1; details: Homo sapiens, THP-1, read-out: THP-1 IL4 pIC50 (converted)
Assign IC50 to each entry below.

Input: Print IL-4 induced STAT6 phosphorylation in THP-1 human monocytic cells IC50 for CCC(=O)N1[C@@H]2CC[C@H]1C[C@H](Nc1nc(Nc3cc(C)[nH]n3)cc3ncccc13)C2 [Example 2-1] .
Output: 31.6 to 200 nM

Input: Report value: IC50, system: IL-4 induced STAT6 phosphorylation in THP-1 human monocytic cells, molecule: Cc1cc(Nc2cc3ncccc3c(N[C@@H]3C[C@H]4CC[C@@H](C3)N4S(=O)(=O)c3cncc(F)c3)n2)n[nH]1 [Example 4-15]
Output: < 31.6 nM

Input: Write IC50 of COC(=O)c1cnc2cc(Nc3cc(C)[nH]n3)nc(N[C@@H]3C[C@H]4CC[C@@H](C3)N4S(C)(=O)=O)c2c1 [Example 6-33] ; system used: IL-4 induced STAT6 phosphorylation in THP-1 human monocytic cells
Output: 31.6 to 200 nM

Input: Tell me its IC50 on IL-4 induced STAT6 phosphorylation in THP-1 human monocytic cells: Cc1cc(Nc2cc3ncccc3c(N[C@@H]3C[C@H]4CC[C@@H](C3)N4Cc3ccc(O)cc3)n2)n[nH]1 [Example 1-18]
Output: > 200 nM

----------
tested on: IL-4 induced STAT6 phosphorylation in THP-1 human monocytic cells; experiment: Cellular JAK potency assay, THP-1; settings: Homo sapiens, THP-1, read-out: THP-1 IL4 pIC50 (converted)
Assignment: determine reported IC50 for the given compounds.

Input: Please give measured IC50 of the following entry: Cc1cc(Nc2cc3nc(CO)ccc3c(N[C@@H]3C[C@H]4CC[C@@H](C3)N4C(=O)OCC(C)C)n2)n[nH]1
Output: 31.6 to 200 nM

Input: Answer with the recorded IC50 for the compound listed here: Cc1cc(Nc2cc3ncccc3c(N[C@@H]3C[C@H]4CC[C@@H](C3)N4C3CCCOC3=O)n2)n[nH]1 (stereo partly drawn)
Output: > 200 nM

Input: Given the compound Cc1cc(Nc2cc3ncccc3c(N[C@@H]3C[C@H]4CC[C@@H](C3)N4CCF)n2)n[nH]1 , write its reported IC50.
Output: 31.6 to 200 nM

Input: Answer with the recorded IC50 for the compound listed here: CCS(=O)(=O)N1[C@@H]2CC[C@H]1C[C@H](Nc1nc(Nc3cc(C)[nH]n3)cc3ncc(C(=O)OC)cc13)C2
Output: < 31.6 nM

Input: # return recorded IC50 for input Cc1cc(Nc2cc3ncc(S(C)(=O)=O)cc3c(N[C@@H]3C[C@H]4CC[C@@H](C3)N4C(=O)C(F)F)n2)n[nH]1
Output: > 200 nM

Input: Respond only with IC50 recorded for Cc1cc(Nc2cc3ncccc3c(N[C@@H]3C[C@H]4CC[C@@H](C3)N4C(=O)c3ccccc3)n2)n[nH]1
Output: 31.6 to 200 nM

Input: Quick one: give measured IC50 for Cc1cc(Nc2cc3ncccc3c(N[C@@H]3C[C@H]4CC[C@@H](C3)N4S(C)(=O)=O)n2)n[nH]1
Output: < 31.6 nM

Input: Return IC50 for the following compound: Cc1cc(Nc2cc3ncccc3c(N[C@@H]3C[C@H]4CC[C@@H](C3)N4C(=O)c3ccncc3)n2)n[nH]1
Output: 31.6 to 200 nM

Input: Retrieve IC50 measured for COc1ccnc2cc(Nc3cc(C)[nH]n3)nc(N[C@@H]3C[C@H]4CC[C@@H](C3)N4CC(F)(F)F)c12 and print it.
Output: < 31.6 nM

Input: Consider the compound CCC1(S(=O)(=O)N2[C@@H]3CC[C@H]2C[C@H](Nc2nc(Nc4cc(C)[nH]n4)cc4ncccc24)C3)CC1 and give its recorded IC50.
Output: < 31.6 nM

Input: Return value of IC50 for input Cc1cc(Nc2cc3ncccc3c(N[C@@H]3C[C@H]4CC[C@@H](C3)N4C(=O)OC(C)C)n2)n[nH]1 , no commentary.
Output: < 31.6 nM

Input: Give the value of IC50 reported for the following: Cc1cc(Nc2cc3ncccc3c(N[C@@H]3C[C@H]4CC[C@@H](C3)N4C3(CC#N)COC3)n2)n[nH]1
Output: < 31.6 nM

Input: Dear colleague, please send me the reported IC50 for Cc1cc(Nc2cc3ncccc3c(N[C@@H]3C[C@H]4CC[C@@H](C3)N4CC(F)(F)F)n2)n[nH]1 when you can.
Output: < 31.6 nM

Input: Recall and state the measured IC50 for CCC(=O)N1[C@@H]2CC[C@H]1C[C@H](Nc1nc(Nc3cc(C)[nH]n3)cc3ncc(C(=O)OC)cc13)C2 .
Output: 31.6 to 200 nM

Input: State its IC50 for this compound: Cc1cc(Nc2cc3ncccc3c(N[C@@H]3C[C@H]4CC[C@@H](C3)N4S(=O)(=O)c3cccnc3)n2)n[nH]1
Output: 31.6 to 200 nM

Input: Provide one value: measured IC50 of COc1ccc2c(N[C@@H]3C[C@H]4CC[C@@H](C3)N4S(C)(=O)=O)nc(Nc3cc(C)[nH]n3)cc2n1
Output: < 31.6 nM

Input: Note down IC50 recorded for COc1cnc2cc(Nc3cc(C)[nH]n3)nc(N[C@@H]3C[C@H]4CC[C@@H](C3)N4S(C)(=O)=O)c2c1
Output: < 31.6 nM

Input: Identify IC50 associated with the compound Cc1cc(Nc2cc3ncccc3c(N[C@@H]3C[C@H]4CC[C@@H](C3)N4CC3COC(=O)O3)n2)n[nH]1 (stereo partly drawn)
Output: 31.6 to 200 nM

Input: Give recorded IC50. CCS(=O)(=O)N1[C@@H]2CC[C@H]1C[C@H](Nc1nc(Nc3cc(C)[nH]n3)cc3ncccc13)C2
Output: < 31.6 nM

Input: State its IC50: COc1ccc2c(N[C@@H]3C[C@H]4CC[C@@H](C3)N4CC(F)(F)F)nc(Nc3cc(C)[nH]n3)cc2n1
Output: < 31.6 nM

Input: Answer with reported IC50 of CCOC(=O)N1[C@@H]2CC[C@H]1C[C@H](Nc1nc(Nc3cc(C)[nH]n3)cc3ncccc13)C2
Output: < 31.6 nM
